Measured optical density values are reported for all entries that follow.
Molecular target: T1, biotinylated goat anti-human kappa light chain
T1 construct: Positive control of the ELISA
Assay: ELISA; positive control; also: test concentration or dose not given here
The figure you give is taken to be in OD; do not add the unit.

- 370_C04 (antibody, V domains shown, VH/VL only) VH: EVQLLESGGGLVQPGGSLRLSCAASGFTFSSYGMNWVRQAPGKGLEWVASINYNSGYTSYADSVKGRFTISRDNSKNTLYLQMNSLRAEDTAVYYCARSATWHDTHLDYWGQGTLVTVSS VL: DIQMTQSPSSLSASVGDRVTITCRASQSILSYLNWYQQKPGKAPKLLIYAASSLQSGVPSRFSGSGSGTDFTLTISSLQPEDFATYYCQQSYENPLTFGGGTKVEIK: 3.6

Let us move to another entry and its optical density.
The recorded optical density for 373_G05 (antibody, V domains shown, VH/VL only) VH: EVQLLESGGGLVQPGGSLRLSCAASGFTFSSYSMNWVRQAPGKGLEWVAGINYNGGYTSYADSVKGRFTISRDNSKNTLYLQMNSLRAEDTAVYYCARSATWHDTHLDYWGQGTLVTVSS VL: DIQMTQSPSSLSASVGDRVTITCRASQSILSYLNWYQQKPGKAPKLLIYAATSLASGVPSRFSGSGSGTDFTLTISSLQPEDFATYYCQQSYELPLTFGGGTKVEIK is 3.22
